- System: KM12 colon
- TEST_METHOD_NOTES: NCI-60 one-dose screen, 48 h
- ASSAY_CONTEXT: 10 µM unless noted
The panel holds about 83,000 compounds, 20% with a hit somewhere; the sample as a whole holds those more often. Active and inactive are the calls of the source. The calls were made as follows: active = growth percent below 10; inactive = the rest.
Outcomes: active, inactive

COMPOUND	LABEL
Nc1n[nH]c2cccc(C#Cc3cccc(C(=O)Nc4ccc(Cl)c(C(F)(F)F)c4)c3)c12	inactive
Cc1ccc(-c2nnc(SCc3nc(N)nc(Nc4ccccc4F)n3)n2-c2ccccc2)cc1	inactive
CN1/C(=C/C=C/c2n(Cc3ccc4ccccc4c3)c(Cl)c(Cl)[n+]2Cc2ccc3ccccc3c2)Oc2ccccc21	active
CN(C)CCOc1nc2c3cc([N+](=O)[O-])ccc3nn2c2ccccc12	inactive
COCCNC(=O)Cc1cc(-c2ccc(Cl)cc2)n(-c2ccccc2)c1C	inactive
N/C(=N\c1nc2ccccc2s1)NC(=O)Nc1ccccc1	inactive
Clc1nc(N2CCC[N+]3(CC2)CC[N+]2(CCCNCC2)CC3)nc(N2CCC[N+]3(CC2)CC[N+]2(CCCNCC2)CC3)n1 (stereo unspecified)	inactive
Cc1cc(C)n(C(=O)CSc2nc3sc4c(c3c(=O)n2-c2ccccc2)CCCCC4)n1	inactive
Cn1cc(-c2ccc3occ(-c4cccc(-c5ccncc5)c4)c3n2)cn1	inactive
Cc1csc(Nc2nc(-c3cccc(Cl)c3)nc(C(Cl)(Cl)Cl)n2)n1	inactive
CNC(=O)c1cc(Oc2ccc3nc(NC(=O)c4cc(C(F)(F)F)cc(C(F)(F)F)c4)sc3c2)ccn1	inactive
